Recorded IRF reporter, one value per entry.
Tested on: RAW-Dual (murine macrophage reporter line)
Assay: IRF reporter (Lucia luciferase) activity fold change vs agonist alone; higher = enhanced IRF activity
Settings: modulator concentration 10 µM; agonist: MPLA […]
REPORTED_ENDPOINT: IRF reporter

COMPOUND: CC#CCn1c(N2CCCC(N)C2)nc2c1c(=O)n(Cc1nc(C)c3ccccc3n1)c(=O)n2C (configuration not stated)
MEASURED_TARGET: RAW-Dual (murine macrophage reporter line)
ASSAY_RESULT: 1.39
//
COMPOUND: COC(=O)c1cc(NC(=O)C2CCCC2)cc(C(=O)OC)c1
MEASURED_TARGET: RAW-Dual (murine macrophage reporter line)
ASSAY_RESULT: 0.97
//
COMPOUND: Oc1ccccc1-c1cc(C(F)(F)F)on1
MEASURED_TARGET: RAW-Dual (murine macrophage reporter line)
ASSAY_RESULT: 1.12
//
COMPOUND: CC(C)Sc1ccc(CC(=O)N2CCC(S(C)(=O)=O)C2)cc1 (configuration not stated)
MEASURED_TARGET: RAW-Dual (murine macrophage reporter line)
ASSAY_RESULT: 1.29
//
COMPOUND: CCCCCN(CCCCC)C(=O)C(CCC(=O)[O-])NC(=O)c1ccc(Cl)c(Cl)c1 (configuration not stated) [Prestw-915]
MEASURED_TARGET: RAW-Dual (murine macrophage reporter line)
ASSAY_RESULT: 1.29
//
COMPOUND: CC(=O)Nc1cccs1
MEASURED_TARGET: RAW-Dual (murine macrophage reporter line)
ASSAY_RESULT: 1.04
//
COMPOUND: CC(C)c1c(C(=O)Nc2ccccc2)c(-c2ccccc2)c(-c2ccc(F)cc2)n1CC[C@@H](O)C[C@@H](O)CC(=O)O [Prestw-1232]
MEASURED_TARGET: RAW-Dual (murine macrophage reporter line)
ASSAY_RESULT: 1.13
//
COMPOUND: CC(=O)Oc1ccc(C(=O)Nc2ccccc2Br)cc1
MEASURED_TARGET: RAW-Dual (murine macrophage reporter line)
ASSAY_RESULT: 0.904
//
COMPOUND: Cc1cc(C(O)CCNC(=O)Nc2ccc(Cl)c(Cl)c2)c(C)o1 (configuration not stated)
MEASURED_TARGET: RAW-Dual (murine macrophage reporter line)
ASSAY_RESULT: 0.863
//
COMPOUND: CC(=O)c1cccc(NC(=O)CSc2nnc3c4ccccc4n(C)c3n2)c1
MEASURED_TARGET: RAW-Dual (murine macrophage reporter line)
ASSAY_RESULT: 1.41
//
COMPOUND: CCOC(=O)[C@H](CCc1ccccc1)N[C@H]1CCc2ccccc2N(CC(=O)O)C1=O.Cl
MEASURED_TARGET: RAW-Dual (murine macrophage reporter line)
ASSAY_RESULT: 0.967
//
COMPOUND: CC(C)(O)CNc1nc(Nc2ccnc(C(F)(F)F)c2)nc(-c2cccc(C(F)(F)F)n2)n1
MEASURED_TARGET: RAW-Dual (murine macrophage reporter line)
ASSAY_RESULT: 1.54
//
COMPOUND: O=C(NCCOc1cccc2ccccc12)Nc1cc(F)c(F)cc1Cl
MEASURED_TARGET: RAW-Dual (murine macrophage reporter line)
ASSAY_RESULT: 0.878
//
COMPOUND: Cc1ccc(C2(c3ccc(C)cc3)CC2C(=O)Nc2ccncc2)cc1 (configuration not stated)
MEASURED_TARGET: RAW-Dual (murine macrophage reporter line)
ASSAY_RESULT: 1.02
//
COMPOUND: Nc1nc2c(ncn2C2CC(O)C(CO)O2)c(=O)[nH]1 (configuration not stated)
MEASURED_TARGET: RAW-Dual (murine macrophage reporter line)
ASSAY_RESULT: 1.36
//
COMPOUND: Clc1ccc(CN2CCN(c3ncnc4scc(-c5cccs5)c34)CC2)cc1
MEASURED_TARGET: RAW-Dual (murine macrophage reporter line)
ASSAY_RESULT: 1.51
//
COMPOUND: CCCc1cc(=O)oc2cc(OCC(=O)OC)c(Cl)cc12
MEASURED_TARGET: RAW-Dual (murine macrophage reporter line)
ASSAY_RESULT: 1.09
//
COMPOUND: CCCc1cc(=O)[nH]c(=S)[nH]1
MEASURED_TARGET: RAW-Dual (murine macrophage reporter line)
ASSAY_RESULT: 0.903
//
COMPOUND: O=C(NC1CCCCC1)c1cccc(C(F)(F)F)c1
MEASURED_TARGET: RAW-Dual (murine macrophage reporter line)
ASSAY_RESULT: 1.47
//
COMPOUND: CSCCC(NC(C)=O)C(=O)N1CCC(n2c(C)nc3ccccc32)C1 (configuration not stated)
MEASURED_TARGET: RAW-Dual (murine macrophage reporter line)
ASSAY_RESULT: 0.957
//
COMPOUND: COc1ccc2oc(=O)c(C(=O)Nc3ccc(C(=O)O)cc3)cc2c1
MEASURED_TARGET: RAW-Dual (murine macrophage reporter line)
ASSAY_RESULT: 0.959
//
COMPOUND: C[C@@H]1COC(Nc2ccc3ncnc(Nc4ccc(OCc5nccs5)c(Cl)c4)c3c2)=N1
MEASURED_TARGET: RAW-Dual (murine macrophage reporter line)
ASSAY_RESULT: 1.27

====

System: RAW-Dual (murine macrophage reporter line)
Experiment: IRF reporter (Lucia luciferase) activity fold change vs agonist alone; higher = enhanced IRF activity
Details: modulator concentration 10 µM; agonist: LPS 0.1 ug/mL
Recorded IRF reporter, one value per entry.

COMPOUND: COCCOCC1CCN(C(=O)c2cc(-c3cccc(OC)c3)n[nH]2)CC1
MEASURED_TARGET: RAW-Dual (murine macrophage reporter line)
IRF reporter: 1.04
--
COMPOUND: COc1ccc(OC)c(C=NNC(=O)c2cc(C)oc2C)c1
MEASURED_TARGET: RAW-Dual (murine macrophage reporter line)
IRF reporter: 1.26
--
COMPOUND: O=C(Cc1ccc(NC(=O)c2ccc(OC(F)(F)F)cc2)cc1)NCC(F)(F)F
MEASURED_TARGET: RAW-Dual (murine macrophage reporter line)
IRF reporter: 1.03
--
COMPOUND: Cc1c(C(=O)OC(C)C)sc(NC(=O)C(C)(C)C)c1C(=O)OC(C)C
MEASURED_TARGET: RAW-Dual (murine macrophage reporter line)
IRF reporter: 1.56
--
COMPOUND: O=C(/C=C/C=C/c1ccc2c(c1)OCO2)N1CCCCC1
MEASURED_TARGET: RAW-Dual (murine macrophage reporter line)
IRF reporter: 1.04
--
COMPOUND: Cc1n[nH]c(C)c1CCC(=O)NC1CCC(F)(F)CC1
MEASURED_TARGET: RAW-Dual (murine macrophage reporter line)
IRF reporter: 1.18
--
COMPOUND: CC1(C)[C@H](C(=O)O)N2C(=O)C[C@H]2S1(=O)=O
MEASURED_TARGET: RAW-Dual (murine macrophage reporter line)
IRF reporter: 0.931
--
COMPOUND: CCN(CC)c1nc(Nc2ccc([N+](=O)[O-])cc2)nc(N(CC)CC)n1
MEASURED_TARGET: RAW-Dual (murine macrophage reporter line)
IRF reporter: 1.16
--
COMPOUND: COCc1cc(C)nc2sc(C(=O)c3cccc([N+](=O)[O-])c3)c(N)c12
MEASURED_TARGET: RAW-Dual (murine macrophage reporter line)
IRF reporter: 1.36
--
COMPOUND: O=c1cc(O)c(Cl)c[nH]1
MEASURED_TARGET: RAW-Dual (murine macrophage reporter line)
IRF reporter: 0.925
--
COMPOUND: O=C(C=Cc1ccco1)Nc1ccc(C(=O)O)cc1NC(=O)C=Cc1ccco1
MEASURED_TARGET: RAW-Dual (murine macrophage reporter line)
IRF reporter: 1.27
--
COMPOUND: CCOC(=O)C1=C(C)OC(N)=C(C#N)C1c1ccc(O)c(OCC)c1 (stereo not given)
MEASURED_TARGET: RAW-Dual (murine macrophage reporter line)
IRF reporter: 1.31
--
COMPOUND: Cc1c(Cl)cccc1Nc1ccccc1C(=O)O
MEASURED_TARGET: RAW-Dual (murine macrophage reporter line)
IRF reporter: 1.34
--
COMPOUND: COC(=O)C1=CN(CC2CCCO2)C=C(C(=O)OC)C1c1ccc(Cl)cc1 (stereo not given)
MEASURED_TARGET: RAW-Dual (murine macrophage reporter line)
IRF reporter: 1.04
--
COMPOUND: Br.O=S(=O)(c1ccc(-c2csc(Nc3ccc(F)cc3)n2)cc1)N1CCOCC1
MEASURED_TARGET: RAW-Dual (murine macrophage reporter line)
IRF reporter: 0.948
--
COMPOUND: Cc1cc2ncc3c(n2n1)CCN(S(=O)(=O)N(C)C)C3
MEASURED_TARGET: RAW-Dual (murine macrophage reporter line)
IRF reporter: 1.09
--
COMPOUND: Cc1nc(N(C)C)nc(C)c1NC(=O)CC(C)C
MEASURED_TARGET: RAW-Dual (murine macrophage reporter line)
IRF reporter: 0.967
--
COMPOUND: CCOC(=O)CC(C(=O)OCC)P(=O)(c1ccccc1)c1ccccc1 (stereo not given)
MEASURED_TARGET: RAW-Dual (murine macrophage reporter line)
IRF reporter: 1.17
--
COMPOUND: CC1CC(=O)C2=C(C1)OC(N)=C(C#N)C2c1ccc(Cl)cc1 (stereo not given)
MEASURED_TARGET: RAW-Dual (murine macrophage reporter line)
IRF reporter: 1
--
COMPOUND: O=C(NCCCn1ccc2cccnc21)c1ccccc1C(F)(F)F
MEASURED_TARGET: RAW-Dual (murine macrophage reporter line)
IRF reporter: 1.16
--
COMPOUND: CCCNS(=O)(=O)Nc1ncnc(OCCOc2ncc(Br)cn2)c1-c1ccc(Br)cc1
MEASURED_TARGET: RAW-Dual (murine macrophage reporter line)
IRF reporter: 0.383
--
COMPOUND: COc1ccc(C(NC(=O)c2ccccc2F)c2ccc(OC)cc2)cc1
MEASURED_TARGET: RAW-Dual (murine macrophage reporter line)
IRF reporter: 1.21
--
COMPOUND: O=S(=O)(Nc1nc2ccccc2n2nnnc12)c1ccc(F)cc1
MEASURED_TARGET: RAW-Dual (murine macrophage reporter line)
IRF reporter: 1.21
--
COMPOUND: CC(C)(O)c1ccccc1CC[C@@H](SCC1(CC(=O)O)CC1)c1cccc(/C=C/c2ccc3ccc(Cl)cc3n2)c1
MEASURED_TARGET: RAW-Dual (murine macrophage reporter line)
IRF reporter: 1.27
--
COMPOUND: Nc1ncnc2c1nc(S)n2C1OC(CO)C(O)C1O (stereo not given)
MEASURED_TARGET: RAW-Dual (murine macrophage reporter line)
IRF reporter: 1.15
--
COMPOUND: CCc1c(C)nc(-n2nc(C)cc2NC(=O)CSCc2ccccc2)[nH]c1=O
MEASURED_TARGET: RAW-Dual (murine macrophage reporter line)
IRF reporter: 1.22
--
COMPOUND: Oc1ccc(Nc2nc(Nc3ccc(O)cc3)nc(N3CCOCC3)n2)cc1
MEASURED_TARGET: RAW-Dual (murine macrophage reporter line)
IRF reporter: 2.4
--
COMPOUND: Cc1ncc(CC(=O)N2CCC(c3ccccc3F)S(=O)(=O)CC2)s1 (stereo not given)
MEASURED_TARGET: RAW-Dual (murine macrophage reporter line)
IRF reporter: 0.985
--
COMPOUND: Br.O=S(=O)(c1ccc(-c2csc(Nc3cccc4ccccc34)n2)cc1)N1CCOCC1
MEASURED_TARGET: RAW-Dual (murine macrophage reporter line)
IRF reporter: 1.25
--
COMPOUND: COc1ccccc1C(=O)Nc1ccc(Nc2ccc(-n3cccn3)nn2)cc1
MEASURED_TARGET: RAW-Dual (murine macrophage reporter line)
IRF reporter: 1.45
--
COMPOUND: O=c1c(O)c(-c2ccccc2)oc2cc(O)ccc12
MEASURED_TARGET: RAW-Dual (murine macrophage reporter line)
IRF reporter: 0.947
--
COMPOUND: CCOC(=O)C1=C(C)NC(=S)NC1c1ccccc1OCc1ccccc1 (stereo not given)
MEASURED_TARGET: RAW-Dual (murine macrophage reporter line)
IRF reporter: 1.25
--
COMPOUND: CC(=O)NC(CS)C(=O)O (stereo not given)
MEASURED_TARGET: RAW-Dual (murine macrophage reporter line)
IRF reporter: 1.08
--
COMPOUND: COC(CNS(=O)(=O)c1ccccc1Br)c1ccc(C)s1 (stereo not given)
MEASURED_TARGET: RAW-Dual (murine macrophage reporter line)
IRF reporter: 0.965
--
COMPOUND: COc1cc(CNCc2ccc3ccccc3c2)cc(OC)c1
MEASURED_TARGET: RAW-Dual (murine macrophage reporter line)
IRF reporter: 0.906
--
COMPOUND: Cc1ccc(CCNc2ccccc2C)cn1
MEASURED_TARGET: RAW-Dual (murine macrophage reporter line)
IRF reporter: 1.35
--
COMPOUND: Cc1ccc2nc(C)c(NC(=O)c3ccc4ccccc4n3)c(=O)n2c1
MEASURED_TARGET: RAW-Dual (murine macrophage reporter line)
IRF reporter: 1.02
--
COMPOUND: Cc1[nH]c2ccccc2c1CCNCc1ccc(/C=C/C(=O)NO)cc1
MEASURED_TARGET: RAW-Dual (murine macrophage reporter line)
IRF reporter: 0.355
--
COMPOUND: CCN(CC)CC#CCOC(=O)C(O)(c1ccccc1)C1CCCCC1 (stereo not given)
MEASURED_TARGET: RAW-Dual (murine macrophage reporter line)
IRF reporter: 1.67
--
COMPOUND: CO[C@@]1(NC(=O)CSCC#N)C(=O)N2C(C(=O)[O-])=C(CSc3nnnn3C)CS[C@@H]21
MEASURED_TARGET: RAW-Dual (murine macrophage reporter line)
IRF reporter: 1.47
--
COMPOUND: CN(C)CCOC(c1ccccc1)c1ccccc1.Cl
MEASURED_TARGET: RAW-Dual (murine macrophage reporter line)
IRF reporter: 1.17
--
COMPOUND: O=c1c(CN2CCC(O)(c3ccc(Br)cc3)CC2)coc2ccccc12
MEASURED_TARGET: RAW-Dual (murine macrophage reporter line)
IRF reporter: 1.07
--
COMPOUND: COc1ccc(CCNC(=O)NCc2nn(C3CCCC3)c3c2CCCC3)cc1
MEASURED_TARGET: RAW-Dual (murine macrophage reporter line)
IRF reporter: 1.13
--
COMPOUND: Cc1ccc(CNC(=O)C(=O)NC2CCCCC2)cc1
MEASURED_TARGET: RAW-Dual (murine macrophage reporter line)
IRF reporter: 1.46
--
COMPOUND: COC(=O)CSc1nc(O)c2c(C)c(C)sc2n1
MEASURED_TARGET: RAW-Dual (murine macrophage reporter line)
IRF reporter: 1.49
